Biological target: GABA-A receptor; alpha-1/beta-3/gamma-2 (Homo sapiens, UniProt P14867+P18507+P28472)
Sequence (P14867 whole entry): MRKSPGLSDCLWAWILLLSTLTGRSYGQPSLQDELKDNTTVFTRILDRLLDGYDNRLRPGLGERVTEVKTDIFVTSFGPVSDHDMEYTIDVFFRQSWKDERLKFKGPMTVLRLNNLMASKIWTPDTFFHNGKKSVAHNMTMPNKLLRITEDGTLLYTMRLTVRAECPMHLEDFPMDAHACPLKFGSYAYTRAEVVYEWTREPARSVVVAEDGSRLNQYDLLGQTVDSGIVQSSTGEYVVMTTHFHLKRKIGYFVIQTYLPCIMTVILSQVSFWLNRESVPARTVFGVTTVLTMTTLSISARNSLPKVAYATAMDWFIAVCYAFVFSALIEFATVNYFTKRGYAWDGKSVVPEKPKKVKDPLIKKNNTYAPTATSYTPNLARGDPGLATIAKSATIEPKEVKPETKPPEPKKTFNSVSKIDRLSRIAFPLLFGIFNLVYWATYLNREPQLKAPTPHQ
Sequence (P18507 whole entry): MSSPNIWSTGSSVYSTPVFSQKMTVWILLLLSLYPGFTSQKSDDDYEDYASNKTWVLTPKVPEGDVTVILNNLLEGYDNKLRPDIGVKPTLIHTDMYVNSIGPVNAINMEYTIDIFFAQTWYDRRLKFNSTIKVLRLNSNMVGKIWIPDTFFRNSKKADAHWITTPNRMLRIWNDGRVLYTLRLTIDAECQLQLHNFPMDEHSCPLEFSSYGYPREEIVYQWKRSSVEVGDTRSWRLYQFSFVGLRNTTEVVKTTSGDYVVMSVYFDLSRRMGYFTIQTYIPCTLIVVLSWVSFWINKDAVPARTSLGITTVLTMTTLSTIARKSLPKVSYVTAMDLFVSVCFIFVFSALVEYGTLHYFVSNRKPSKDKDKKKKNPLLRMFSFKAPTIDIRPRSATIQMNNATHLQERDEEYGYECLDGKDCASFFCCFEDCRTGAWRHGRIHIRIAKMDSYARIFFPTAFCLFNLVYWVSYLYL
Sequence (P28472 whole entry): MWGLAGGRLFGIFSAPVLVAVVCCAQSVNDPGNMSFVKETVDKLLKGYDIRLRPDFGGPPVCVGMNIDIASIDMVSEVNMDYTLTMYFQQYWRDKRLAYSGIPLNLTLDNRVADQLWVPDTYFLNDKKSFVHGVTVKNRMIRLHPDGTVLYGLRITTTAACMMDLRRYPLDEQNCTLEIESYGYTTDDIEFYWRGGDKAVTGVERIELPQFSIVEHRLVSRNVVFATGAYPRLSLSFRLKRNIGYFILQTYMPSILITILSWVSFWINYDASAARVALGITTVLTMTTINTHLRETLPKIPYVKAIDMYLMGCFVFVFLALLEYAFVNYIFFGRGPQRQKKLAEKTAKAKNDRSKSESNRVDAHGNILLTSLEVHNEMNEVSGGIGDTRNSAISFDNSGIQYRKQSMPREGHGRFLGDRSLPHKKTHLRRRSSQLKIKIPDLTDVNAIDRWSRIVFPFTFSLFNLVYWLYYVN
Assay: Inhibition of [3H]Ro-151788 binding to human GABA A receptor (alpha-1-beta-3-gamma-2) stably expressed in L(tk-) cells.
Type: cell-based
pKi: −log10 of the molar value.
Endpoint label: pKi

Please review the following examples before continuing.
COc1ccc(-c2cc(-c3nc(C)ns3)c(=O)n(C)c2-c2ccncc2)cc1	7.05
COc1ccc(-c2cc(-c3nc(C)cs3)c(=O)n(C)c2-c2ccnnc2)cc1	7.77
COc1ccc(-c2cc(-c3noc(C)n3)c(=O)n(C)c2-c2ccncc2)cc1	6.59
COC(=O)c1cc(-c2ccccc2)c(-c2ccccc2)n(C)c1=O	6.28
COc1ccc(-c2cc(-c3nc(C)cs3)c(=O)n(C)c2-c2cccnc2)cc1	7.89

1. COc1ccc(-c2cc(-c3cccs3)c(=O)n(C)c2-c2ccncc2)cc1
2. COc1ccc(-c2cc(-c3ncc(C)s3)c(=O)n(C)c2-c2ccncc2)cc1
# input Given 1 and given 2 , which shows the smaller recorded pKi? // caller expects the label of the chosen entry
# output 2
(2: 6.48, 1: 7.52)

====

Target: GABA-A receptor; alpha-3/beta-3/gamma-2 (Homo sapiens) (UniProt P18507+P28472+P34903)
Experiment: Modulatory effect on coapplication with GABA at human Gamma-aminobutyric acid A receptor alpha-3-beta-3-gamma-2 in Xenopus oocytes.
Assay type: cell-based
Conditions: Oocyte
Endpoint label: percent modulation of GABA EC20 response (%)

COc1ccc(-c2cc(C#N)c(=O)n(C)c2-c2ccc(N(C)C)cc2)cc1	8
COc1ccc(-c2cc(-c3noc(C4CC4)n3)c(=O)n(C)c2-c2ccncc2)cc1	150

I. COc1ccc(-c2cc(-c3nc(C)ns3)c(=O)n(C)c2-c2ccncc2)cc1
II. COc1ccc(-c2cc(-c3nc(C)cs3)c(=O)n(C)c2-c2cccnc2)cc1
# input Lower percent modulation of GABA EC20 response: I or II ? Mark your answer with the label of the selected entry.
# output II
(II: 77%, I: 138%)

====

Assay: Maximum concentration at a dose of 1.5 mg/kg
Format: ADME, organism-based
Parameters: dose 1.5 mg/kg
Conditions: in vivo
Endpoint label: Cmax (ng/mL)
Form entry: value (ng/mL) — number only.

# input Supply Cmax value. Item: COc1ccc(-c2cc(-c3nc(C)cs3)c(=O)n(C)c2-c2ccnnc2)cc1
# output 170

====

Assay: Vdss at a dose of 2.0 mg/kg
Assay type: ADME, organism-based
Set-up: dose 2 mg/kg
Conditions: in vivo, read-out: Vdss
Endpoint label: Vd (L/kg)
// return numeric value only (unit: L/kg, not printed)

# input Look up and state reported Vd for COc1ccc(-c2cc(-c3nc(C)cs3)c(=O)n(C)c2-c2ccncc2)cc1
# output 3.3

====

Target: GABA-A receptor; alpha-2/beta-3/gamma-2 (Homo sapiens) (UniProt P18507+P28472+P47869)
Assay: Modulatory effect on coapplication with GABA at human Gamma-aminobutyric acid A receptor alpha-2-beta-3-gamma-2 expressed inXenopus oocytes
Format: cell-based
Details: Oocyte
Endpoint label: percent modulation of GABA EC20 response (%)

COc1ccc(-c2cc(-c3cccs3)c(=O)n(C)c2-c2ccncc2)cc1	15
COc1ccc(-c2cc(-c3nc(C)cs3)c(=O)n(C)c2-c2ccncc2)cc1	80
COc1ccc(-c2cc(-c3nccs3)c(=O)n(C)c2-c2ccncc2)cc1	67

1. COc1ccc(-c2cc(-c3noc(C4CC4)n3)c(=O)n(C)c2-c2ccncc2)cc1
2. COc1ccc(-c2cc(C#N)c(=O)n(C)c2-c2ccc(N(C)C)cc2)cc1
3. COC(=O)c1cc(-c2ccc(OC)cc2)c(-c2ccncc2)n(C)c1=O
4. COc1ccc(-c2cc(-c3nc(C)ns3)c(=O)n(C)c2-c2ccncc2)cc1
# input Arrange items by their percent modulation of GABA EC20 response values in increasing order. Could you list the labels in the order requested?
# output 2, 3, 4, 1

1. COC(=O)c1cc(-c2ccc(OC)cc2)c(-c2ccc(N(C)C)cc2)n(C)c1=O
2. COc1ccc(-c2cc(-c3nc(C)cs3)c(=O)n(C)c2-c2ccnnc2)cc1
# input Smaller percent modulation of GABA EC20 response value, 1 vs 2 ? Answer with the label corresponding to your selection.
# output 2
(2: 33%, 1: 81%)
